target: Tryptophan hydroxylase (Rattus norvegicus, UniProt Q8CGU9); construct: The preparation of tryptophan hydroxylase was a crude 30,000xg supernatant; from tissue; test: Tryptophan hydroxylase cofactor assay; type: biochemical; conditions: in words
Sequence (Q8CGU9 whole entry): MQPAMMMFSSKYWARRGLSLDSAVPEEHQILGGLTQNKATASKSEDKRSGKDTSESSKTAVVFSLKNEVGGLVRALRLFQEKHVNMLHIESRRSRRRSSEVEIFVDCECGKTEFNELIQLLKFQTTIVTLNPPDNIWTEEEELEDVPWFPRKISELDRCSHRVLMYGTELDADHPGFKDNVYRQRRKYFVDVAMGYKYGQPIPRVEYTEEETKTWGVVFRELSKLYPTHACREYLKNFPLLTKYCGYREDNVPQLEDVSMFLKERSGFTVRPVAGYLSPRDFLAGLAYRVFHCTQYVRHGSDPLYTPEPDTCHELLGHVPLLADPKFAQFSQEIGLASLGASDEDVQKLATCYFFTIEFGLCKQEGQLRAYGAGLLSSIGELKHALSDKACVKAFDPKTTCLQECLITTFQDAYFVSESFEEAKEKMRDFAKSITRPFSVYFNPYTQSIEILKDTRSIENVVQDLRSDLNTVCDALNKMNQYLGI

molecule: CCCOCC1CNc2nc(N)[nH]c(=O)c2N1 (stereo not shown)
tested_system: Tryptophan hydroxylase (Rattus norvegicus, UniProt Q8CGU9)
Activity for tryptophan hydroxylase: successively less active
--
molecule: CCCCOCC1CNc2nc(N)[nH]c(=O)c2N1 (racemic)
tested_system: Tryptophan hydroxylase (Rattus norvegicus, UniProt Q8CGU9)
Activity for tryptophan hydroxylase: successively less active
--
molecule: CCCCCCCCOCC1CNc2nc(N)[nH]c(=O)c2N1 (stereo not shown)
tested_system: Tryptophan hydroxylase (Rattus norvegicus, UniProt Q8CGU9)
Activity for tryptophan hydroxylase: successively less active

* * *

target: Phenylalanine hydroxylase (Rattus norvegicus); construct: Phenylalanine hydroxylase was prepared from rat liver using hydrophobic chromatography; from tissue; host or cells: rat liver; assay: Phenylalanine hydroxylase cofactor assay; type: biochemical; settings: in words
Sequence (P04176 whole entry): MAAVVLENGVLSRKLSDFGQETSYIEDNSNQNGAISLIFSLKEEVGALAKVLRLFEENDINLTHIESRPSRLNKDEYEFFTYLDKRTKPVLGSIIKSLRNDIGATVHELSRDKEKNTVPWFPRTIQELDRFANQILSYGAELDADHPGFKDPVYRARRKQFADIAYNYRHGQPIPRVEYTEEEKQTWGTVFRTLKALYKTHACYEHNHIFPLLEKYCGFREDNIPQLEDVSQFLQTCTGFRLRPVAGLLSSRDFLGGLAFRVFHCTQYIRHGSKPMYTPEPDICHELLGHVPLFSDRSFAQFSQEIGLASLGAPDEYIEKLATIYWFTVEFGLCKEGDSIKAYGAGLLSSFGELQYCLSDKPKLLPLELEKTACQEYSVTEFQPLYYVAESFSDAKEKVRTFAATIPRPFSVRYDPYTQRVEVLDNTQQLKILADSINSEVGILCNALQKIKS

compound: CCCOCC1CNc2nc(N)[nH]c(=O)c2N1 (stereo not shown)
Activity for phenylalanine hydroxylase: successively less active
--
compound: CCCCOCC1CNc2nc(N)[nH]c(=O)c2N1 (racemic)
Activity for phenylalanine hydroxylase: successively less active
--
compound: CCCCCCCCOCC1CNc2nc(N)[nH]c(=O)c2N1 (stereo not shown)
Activity for phenylalanine hydroxylase: successively less active
